Source: ChEMBL document CHEMBL4840359

- Study System: Neuropeptide Y receptor type 4 (Homo sapiens)
- Sequence (P50391 whole entry): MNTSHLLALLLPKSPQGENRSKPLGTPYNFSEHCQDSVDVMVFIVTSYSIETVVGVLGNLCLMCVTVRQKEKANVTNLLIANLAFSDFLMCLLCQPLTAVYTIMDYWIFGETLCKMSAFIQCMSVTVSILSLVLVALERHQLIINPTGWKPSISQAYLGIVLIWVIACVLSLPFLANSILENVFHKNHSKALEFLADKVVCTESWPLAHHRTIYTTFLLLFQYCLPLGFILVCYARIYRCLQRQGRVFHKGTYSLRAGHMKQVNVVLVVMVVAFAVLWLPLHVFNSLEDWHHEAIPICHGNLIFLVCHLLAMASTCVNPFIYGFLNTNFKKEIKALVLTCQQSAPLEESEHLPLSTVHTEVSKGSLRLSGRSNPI
- Assay Details: Displacement of [3H]UR-KK200 from human neuropeptide Y Y4 receptor expressed in CHO-mtAEQ cells co-expressing Gqi5 measured after 90 mins by scintillation counting analysis
- Assay type: cell-based
- Setup Conditions: read-out: pKi (converted)
Starred links: 1 amine or outer side, 2 acyl side, 3 side chain; linkers in the order of their positions; H or OH if unused. Residues, ends and D or L forms follow the SMILES beside them. Groups on a side chain read outwards from the residue. *: point of attachment. Suc = O=C(CCC(=O)[*:2])[*:1]; NH(CH2)4NH2 = NCCCCN*; CO = O=C([*:1])[*:2]
A collection of compounds and their measured log10 of Ki
Property Measured: log10 of Ki (log10 of the value in nM)

INSERT INTO results (compound, endpoint_result) VALUES
  ('N=C(N)NCCC[C@@H]1NC(=O)CCC(=O)NCCCNC(=O)NC(=N)NCCC[C@@H](C(=O)N[C@@H](Cc2c[nH]c3ccccc23)C(=O)N[C@@H](CCCNC(=N)N)C(=O)N[C@@H](Cc2ccc(O)cc2)C(N)=O)NC(=O)[C@H](Cc2ccc(O)cc2)NC1=O (HELM PEPTIDE1{R.Y.[N=C(NCCC[C@H](N[*:1])C(=O)[*:2])N[*:3]].W.R.Y.[am]}|CHEM1{[O=C(CCC(=O)[*:1])NCCCNC(=O)[*:2]]}$PEPTIDE1,CHEM1,1:R1-1:R1|PEPTIDE1,CHEM1,3:R3-1:R2$$$V2.0)', 1.46),
  ('CC(C)C[C@H](NC(=O)[C@@H]1CC(=O)NCC(=O)N[C@H](CCCNC(=N)N)C(=O)N[C@@H](CCCNC(=N)N)C(=O)N1)C(=O)N[C@@H](CCCNC(=N)N)C(=O)N[C@@H](Cc1ccc(O)cc1)C(N)=O', 2.14),
  ('CC(C)C[C@H](NC(=O)[C@H](CCCNC(=N)NC(=O)NCCCCN)NC(=O)[C@H](Cc1ccc(O)cc1)NC(=O)[C@H](CCCCN)NC(=O)CCC(=O)O)C(=O)N[C@@H](CCCNC(=N)N)C(=O)N[C@@H](Cc1ccc(O)cc1)C(N)=O (Suc-KYR([CO-NH(CH2)4NH2])LRY-NH2)', 0.84),
  ('CC(C)C[C@H](NC(=O)[C@H](CCCNC(=N)NC(=O)NCCCCN)NC(=O)[C@H](Cc1ccc(O)cc1)NC(=O)[C@H](CCCNC(=N)N)NC(=O)CCC(=O)O)C(=O)N[C@@H](CCCNC(=N)N)C(=O)N[C@@H](Cc1ccc(O)cc1)C(N)=O', 0.10),
  ('CC(C)C[C@H](NC(=O)[C@@H]1CCCNC(=N)NC(=O)NCCCNC(=O)CCC(=O)N[C@@H](CCCNC(=N)N)C(=O)N[C@@H](Cc2ccc(O)cc2)C(=O)N1)C(=O)N[C@@H](CCCNC(=N)N)C(=O)N[C@@H](Cc1ccc(O)cc1)C(N)=O', -0.93),
  ('CC(C)C[C@H](NC(=O)[C@@H]1CCC(=O)NCC(=O)N[C@H](CCCNC(=N)N)C(=O)N[C@@H](CCCNC(=N)N)C(=O)N1)C(=O)N[C@@H](CCCNC(=N)N)C(=O)N[C@@H](Cc1ccc(O)cc1)C(N)=O', 1.46),
  ('CC(C)C[C@H](NC(=O)[C@H](CCCNC(=N)NC(=O)NCCCN)NC(=O)[C@H](Cc1ccc(O)cc1)NC(=O)[C@H](CCCNC(=N)N)NC(=O)CCC(=O)O)C(=O)N[C@@H](CCCNC(=N)N)C(=O)N[C@@H](Cc1ccc(O)cc1)C(N)=O', -0.19);

###

- Study System: Neuropeptide Y receptor type 1 (Homo sapiens)
- Sequence (P25929 whole entry): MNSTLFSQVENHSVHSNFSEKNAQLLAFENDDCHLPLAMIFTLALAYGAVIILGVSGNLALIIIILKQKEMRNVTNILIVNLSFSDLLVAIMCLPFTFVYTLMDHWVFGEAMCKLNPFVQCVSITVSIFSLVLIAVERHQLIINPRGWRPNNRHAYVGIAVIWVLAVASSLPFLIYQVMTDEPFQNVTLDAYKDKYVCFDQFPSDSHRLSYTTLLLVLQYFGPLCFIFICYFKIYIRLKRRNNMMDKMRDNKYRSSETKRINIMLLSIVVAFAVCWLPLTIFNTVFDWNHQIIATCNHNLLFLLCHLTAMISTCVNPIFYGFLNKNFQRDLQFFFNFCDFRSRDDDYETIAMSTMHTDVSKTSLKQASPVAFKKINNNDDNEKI
- Assay Details: Displacement of [3H]UR-MK299 from human neuropeptide Y Y1 receptor in human SK-N-MC cells measured after 90 mins by scintillation counting analysis
- Assay type: cell-based
- Setup Conditions: read-out: Ki
pKi: −log10 of the molar value. Residues, ends and D or L forms follow the SMILES beside them.
pKi by entry:
Property Measured: pKi

INSERT INTO measurements (molecule, endpoint_result) VALUES
  ('CC(C)C[C@H](NC(=O)[C@@H]1CCC(=O)NCC(=O)N[C@H](CCCNC(=N)N)C(=O)N[C@@H](CCCNC(=N)N)C(=O)N1)C(=O)N[C@@H](CCCNC(=N)N)C(=O)N[C@@H](Cc1ccc(O)cc1)C(N)=O', '< 5.52'),
  ('CC(C)C[C@H](NC(=O)[C@@H]1CCCNC(=N)NC(=O)NCCCCNC(=O)CCC(=O)N[C@@H](CCCNC(=N)N)C(=O)N1)C(=O)N[C@@H](CCCNC(=N)N)C(=O)N[C@@H](Cc1ccc(O)cc1)C(N)=O (HELM PEPTIDE1{R.[N=C(NCCC[C@H](N[*:1])C(=O)[*:2])N[*:3]].L.R.Y.[am]}|CHEM1{[O=C(CCC(=O)[*:1])NCCCCNC(=O)[*:2]]}$PEPTIDE1,CHEM1,1:R1-1:R1|PEPTIDE1,CHEM1,2:R3-1:R2$$$V2.0)', '< 5.52'),
  ('CC(C)C[C@H](NC(=O)[C@H](CCCNC(=N)N)NC(=O)[C@@H]1CCC(=O)N[C@@H](CCCNC(=N)N)C(=O)NCC(=O)N[C@@H](Cc2ccc(O)cc2)C(=O)N1)C(=O)N[C@@H](CCCNC(=N)N)C(=O)N[C@@H](Cc1ccc(O)cc1)C(N)=O (HELM PEPTIDE1{R.G.Y.E.R.L.R.Y.[am]}$PEPTIDE1,PEPTIDE1,1:R1-4:R3$$$V2.0)', 6.12),
  ('CC(C)C[C@H](NC(=O)[C@@H]1CCCNC(=N)NC(=O)NCCCCNC(=O)CCC(=O)N[C@@H](CCCNC(=N)N)C(=O)N[C@@H](Cc2ccc(O)cc2)C(=O)N1)C(=O)N[C@@H](CCCNC(=N)N)C(=O)N[C@@H](Cc1ccc(O)cc1)C(N)=O', '< 5.52');

###

- Assay Details: Stability in human plasma assessed as intact peptide measured after 1 hr at 37 degC by RP-HPLC analysis
- Type: ADME, cell-free
- Setup Conditions: read-out: Stability
Residues, ends and D or L forms follow the SMILES beside them.
Reported remaining at 1 h values for the following compounds.
Property Measured: remaining at 1 h (%)

INSERT INTO measurements (compound, endpoint_result) VALUES
  ('CC(=O)N[C@@H](CCCNC(=N)N)C(=O)N[C@@H](Cc1ccc(O)cc1)C(=O)N[C@@H](CCCN/C(N)=N/C(=O)NCCCCN)C(=O)N[C@@H](CC(C)C)C(=O)N[C@@H](CCCNC(=N)N)C(=O)N[C@@H](Cc1ccc(O)cc1)C(N)=O (HELM PEPTIDE1{[ac].R.Y.[NCCCCNC(=O)/N=C(\N)NCCC[C@H](N[*:1])C(=O)[*:2]].L.R.Y.[am]}$$$$V2.0)', 77),
  ('CC(C)C[C@H](NC(=O)[C@@H]1CCCNC(=N)NC(=O)NCCCCNC(=O)CCC(=O)N[C@@H](CCCNC(=N)N)C(=O)N[C@@H](Cc2c[nH]c3ccccc23)C(=O)N1)C(=O)N[C@@H](CCCNC(=N)N)C(=O)N[C@@H](Cc1ccc(O)cc1)C(N)=O', 87),
  ('CC(C)C[C@H](NC(=O)[C@@H]1CCCNC(=N)NC(=O)NCCCCNC(=O)CCC(=O)N[C@@H](CCCNC(=N)N)C(=O)N[C@@H](Cc2ccc(O)cc2)C(=O)N1)C(=O)N[C@@H](CCCNC(=N)N)C(=O)N[C@@H](Cc1ccc(O)cc1)C(N)=O', 85);
